// merged dataset of IC50 values, system = Epidermal growth factor receptor (Homo sapiens, UniProt P00533), multiple refs

Sample records with IC50:
Cc1ccnc(NC(=O)c2ccc(Oc3ccnc4[nH]nc(NC5CCN(C(=O)C6(C)CCN(C)CC6)CC5)c34)cc2)c1 ... > 10000 nM
CC(C)c1nc(-c2ccc(F)c(NS(=O)(=O)c3ccccc3C(F)(F)F)c2)c(-c2ccnc(Nc3ccc(N4CCOCC4)nc3)n2)s1 ... > 1000 nM
CCN1CCC(Nc2ccc3c(c2)/C(=C(\c2ccc([N+](=O)[O-])cc2)c2nc4ccccc4[nH]2)C(=O)N3)CC1 ... 500 to 5000 nM
CCN1CCC(Nc2ccc3c(c2)/C(=C(\c2ccc(N)cc2)c2nc4ccccc4[nH]2)C(=O)N3)CC1 ... 50 to 500 nM
CCc1cc(Nc2ncc(Br)c(Nc3ccc(-c4cnn(C)n4)cc3P(C)(C)=O)n2)c(OC)cc1N1CCC(N2CCN(C)CC2)CC1 ... 10.8 nM

Input: // query IC50 value for entry CCc1cc(Nc2ncc(Br)c(Nc3ccc(-c4ccc(OC)s4)cc3P(C)(C)=O)n2)c(OC)cc1N1CCC(N2CCN(C)CC2)CC1
Output: 12 nM
